Source of measurements: patent US20260293897A1

# Test system: Tetranychus cinnabarinus
# MEASUREMENT_NOTES: Tetranychus cinnabarinus Controlling Activity Test
# Type: in vivo
# EXPERIMENTAL_SETUP: in Phaseolus vulgaris, 72 h
# Method: Tetranychus cinnabarinus Controlling Activity Test: The test compound was dissolved in acetone and diluted to the desired concentration with 0.1 wt % aqueous tween 80, the acetone content not exceeding 5 wt %. […]
MEASURED_METRIC: mortality at 1.56 ppm (%)
Just the number in %, nothing appended.

Recorded results for 2 compounds are shown here.
{"columns": ["COMPOUND", "MEASURED_METRIC", "ASSAY_VALUE"],
 "data": [
  ["Cc1cc(C2=NOC(c3cc(Cl)c(F)c(Cl)c3)(C(F)(F)F)C2)ccc1C(=O)N[C@@H]1CCS(=O)(=O)C1 (stereo partly drawn) [Compound I-14]", "mortality at 1.56 ppm", 100],
  ["Cc1cc(C2=NO[C@@](c3cc(Cl)c(F)c(Cl)c3)(C(F)(F)F)C2)ccc1C(=O)NC1CCS(=O)(=O)C1 (stereo partly drawn) [Compound I-17]", "mortality at 1.56 ppm", 100]
]}

# evaluate next
Answer with reported mortality at 1.56 ppm of CO/N=C/NC(=O)c1ccc(C2=NOC(c3cc(Cl)cc(Cl)c3)(C(F)(F)F)C2)cc1C (stereo not drawn) [Fluxametamide, reference compound]
0

====

# Test system: Tetranychus cinnabarinus
# MEASUREMENT_NOTES: Tetranychus cinnabarinus Controlling Activity Test
# Format: in vivo
# EXPERIMENTAL_SETUP: in Phaseolus vulgaris, 72 h
Overview of recorded mortality at 12.5 ppm for various compounds
Just so you know, I need the unit written after the number.

{"columns": ["COMPOUND", "TARGET_UNDER_TEST", "MEASURED_METRIC", "ASSAY_VALUE"],
 "data": [
  ["CO/N=C/NC(=O)c1ccc(C2=NOC(c3cc(Cl)cc(Cl)c3)(C(F)(F)F)C2)cc1C (stereo not drawn) [Fluxametamide, reference compound]", "Tetranychus cinnabarinus", "mortality at 12.5 ppm", "96.8%"]
]}

Find the measured mortality at 12.5 ppm of Cc1cc(C2=NO[C@@](c3cc(Cl)c(F)c(Cl)c3)(C(F)(F)F)C2)ccc1C(=O)NC1CCS(=O)(=O)C1 (stereo partly drawn) and report it.
100%

Look up and state reported mortality at 12.5 ppm for Cc1cc(C2=NOC(c3cc(Cl)c(F)c(Cl)c3)(C(F)(F)F)C2)ccc1C(=O)NC1CCS(=O)(=O)C1.I (stereo not drawn)
100%

Supply mortality at 12.5 ppm value. Item: Cc1cc(C2=NOC(c3cc(Cl)c(F)c(Cl)c3)(C(F)(F)F)C2)ccc1C(=O)N[C@@H]1CCS(=O)(=O)C1 (stereo partly drawn)
100%

Return the recorded mortality at 12.5 ppm value; entry: CCC(=O)N(C(=O)c1ccc(C2=NOC(c3cc(Cl)c(F)c(Cl)c3)(C(F)(F)F)C2)cc1C)C1CCS(=O)(=O)C1 (stereo not drawn)
100%

Quickly give me recorded mortality at 12.5 ppm for Cc1cc(C2=NOC(c3cc(C(F)(F)F)cc(C(F)(F)F)c3)(C(F)(F)F)C2)ccc1C(=O)NC1CCS(=O)(=O)C1 (stereo not drawn)
100%

====

The entries below come with measured mortality at 1.56 ppm values attached.
# System: Frankliniella occidentalis larvae
# MEASUREMENT_NOTES: Frankliniella occidentalis Larva Controlling Activity Test
# Assay type: in vivo
# EXPERIMENTAL_SETUP: in Brassica oleracea, 72 h
The reply should consist of the numeric value with the unit placed after it.

The cases that follow already have their mortality at 1.56 ppm on record.
{"columns": ["MOLECULE", "TARGET_UNDER_TEST", "mortality at 1.56 ppm"],
 "data": [
  ["CO/N=C/NC(=O)c1ccc(C2=NOC(c3cc(Cl)cc(Cl)c3)(C(F)(F)F)C2)cc1C (stereo not shown) [Fluxametamide, reference compound]", "Frankliniella occidentalis larvae", "0%"],
  ["CCC(=O)N(C(=O)c1ccc(C2=NOC(c3cc(Cl)c(F)c(Cl)c3)(C(F)(F)F)C2)cc1C)C1CCS(=O)(=O)C1 (stereo not shown) [Compound I-10]", "Frankliniella occidentalis larvae", "92%"],
  ["Cc1cc(C2=NOC(c3cc(C(F)(F)F)cc(C(F)(F)F)c3)(C(F)(F)F)C2)ccc1C(=O)NC1CCS(=O)(=O)C1 (stereo not shown) [Compound I-25]", "Frankliniella occidentalis larvae", "100%"]
]}

Here is the next item to consider.
Read off the recorded mortality at 1.56 ppm for Cc1cc(C2=NOC(c3cc(Cl)c(F)c(Cl)c3)(C(F)(F)F)C2)ccc1C(=O)NC1CCS(=O)(=O)C1.I (stereo not shown) [Compound I-1]
100%

====

# Test system: Tetranychus cinnabarinus
# MEASUREMENT_NOTES: Tetranychus cinnabarinus Controlling Activity Test
# Format: in vivo
# EXPERIMENTAL_SETUP: in Phaseolus vulgaris, 72 h
# Description: Tetranychus cinnabarinus Controlling Activity Test: The test compound was dissolved in acetone and diluted to the desired concentration with 0.1 wt % aqueous tween 80, the acetone content not exceeding 5 wt %. […]
MEASURED_METRIC: mortality at 1.56 ppm (%)
Your answer is read as %, so omit the unit and give the number.

Solved cases (2 shown):
{"columns": ["MOLECULE", "MEASURED_METRIC", "ASSAY_VALUE"],
 "data": [
  ["Cc1cc(C2=NOC(c3cc(Cl)c(F)c(Cl)c3)(C(F)(F)F)C2)ccc1C(=O)NC1CCS(=O)(=O)C1.I (stereo not drawn)", "mortality at 1.56 ppm", 94.3],
  ["CCC(=O)N(C(=O)c1ccc(C2=NOC(c3cc(Cl)c(F)c(Cl)c3)(C(F)(F)F)C2)cc1C)C1CCS(=O)(=O)C1 (stereo not drawn)", "mortality at 1.56 ppm", 97.2]
]}

Could you now consider this next molecule?
Assign mortality at 1.56 ppm to the following record: Cc1cc(C2=NOC(c3cc(C(F)(F)F)cc(C(F)(F)F)c3)(C(F)(F)F)C2)ccc1C(=O)NC1CCS(=O)(=O)C1 (stereo not drawn)
90.3
